Please respond with reported combination Emax for every item in the list.
# Tested on: SHP-77 (Small Cell Lung Carcinoma)
# Method description: combination Emax (second highest fraction inhibited in the dose matrix, 72 h); higher = more inhibition; extreme values may be limits of the assay
The response must contain the number and no unit.

Documented combination Emax of COc1cccc(OCCCN)c1-c1cc(Nc2cnc(C#N)cn2)n[nH]1 [Prexasertib] + C[C@@H]1COCCN1C2=NC(=NC(=C2)C3(CC3)[S@](=N)(=O)C)C4=C5C=CNC5=NC=C4 [AZD6738] (first compound max 1 µM, 7x7, partner max 10 µM) : 0.836

Per the records, this compound ( Cc1c2c(nn1C)CSCc1cc(n(C)n1)CSc1cc(c3ccccc3c1)OCCCc1c(C(=O)O)n(C)c3c-2c(Cl)ccc13 [AZD5991] + C=CCn1c(=O)c2cnc(Nc3ccc(N4CCN(C)CC4)cc3)nc2n1-c1cccc(C(C)(C)O)n1 [AZD1775] (first compound max 1 µM, partner max 1 µM) ) has combination Emax equal to 0.461

Cn1cnc2c(F)c(Nc3ccc(Br)cc3Cl)c(C(=O)NOCCO)cc21 [Selumetinib] + C=CCn1c(=O)c2cnc(Nc3ccc(N4CCN(C)CC4)cc3)nc2n1-c1cccc(C(C)(C)O)n1 [AZD1775] (first compound max 10 µM, partner max 1 µM) yielded combination Emax of 0.35

Entry COc1cccc(OCCCN)c1-c1cc(Nc2cnc(C#N)cn2)n[nH]1 [Prexasertib] + C=CCn1c(=O)c2cnc(Nc3ccc(N4CCN(C)CC4)cc3)nc2n1-c1cccc(C(C)(C)O)n1 [AZD1775] (first compound max 1 µM, partner max 1 µM) , combination Emax reported as 0.949

Value of measured combination Emax for the entry N#Cc1cnc(Nc2cc(NC[C@H]3CNCCO3)c(C(F)(F)F)cn2)cn1 [SRA737] + O=c1[nH]cc(F)c(=O)[nH]1 [5-Fluorouracil] (first compound max 10 µM, 7x7, partner max 20 µM) : 0.786

# combination Emax (compound: Cc1c2c(nn1C)CSCc1cc(n(C)n1)CSc1cc(c3ccccc3c1)OCCCc1c(C(=O)O)n(C)c3c-2c(Cl)ccc13 [AZD5991] + Cn1cnc2c(F)c(Nc3ccc(Br)cc3Cl)c(C(=O)NOCCO)cc21 [Selumetinib] (first compound max 1 µM, 7x7, partner max 3 µM) ) is 0.598
